experiment: Scavenging activity against NO generation in human Chang liver cells assessed as inhibition of NOR1-activation at 350 nM relative to NOR1; assay type: functional
For each record, write down the corresponding Activity.
Just the number.

Problem: Find the recorded Activity belonging to CC(C)=CCC[C@@H](C)[C@H]1CC[C@@]2(C)[C@@H]3CC[C@H]4C(C)(C)C(=O)CC[C@@]45C[C@@]35CC[C@]12C and report it.
Result: 1.5

Problem: // next record COC(C)(C)[C@@H](O)CC[C@@H](C)[C@H]1CC[C@@]2(C)[C@@H]3CC[C@H]4C(C)(C)[C@@H](O)CC[C@@]45C[C@@]35CC[C@]12C
Result: 1.8

Problem: // next record C=C(CC[C@@H](C)[C@H]1CC[C@@]2(C)[C@@H]3CC[C@H]4C[C@@H](OC(C)=O)CC[C@@]45C[C@@]35CC[C@]12C)C(C)C
Result: 1.5

* * *

tested on: Human gammaherpesvirus 4; test: Inhibition of TPA-induced Epstein-Barr virus early antigen activation in Raji cells after 48 hrs; type: functional, organism-based; conditions: human gammaherpesvirus 4, Raji
For each record, write down the corresponding IC50.
Write it as a number; the unit nM goes unstated.

Problem: Query for Human gammaherpesvirus 4: what IC50 does the record show for CC(C)=CCC[C@@H](C)[C@H]1CC[C@@]2(C)[C@@H]3CC[C@H]4C(C)(C)[C@@H](O)CC[C@@]45C[C@@]35CC[C@]12C [CYCLOARTENOL] ?
Result: 8.8

Problem: // next record C=C(C)[C@@H](CC)CC[C@@H](C)[C@H]1CC[C@@]2(C)[C@@H]3CC[C@H]4C(C)(C)[C@@H](O)CC[C@@]45C[C@@]35CC[C@]12C [POLYSTHICOL (24S)]
Result: 8.8

Problem: // next record C=C(C)[C@H](O)CC[C@@H](C)[C@H]1CC[C@@]2(C)[C@@H]3CC[C@H]4C(C)(C)[C@@H](O)CC[C@@]45C[C@@]35CC[C@]12C
Result: 6.4

Problem: // next record C/C(=C\C[C@@H](C)[C@H]1CC[C@@]2(C)[C@@H]3CC[C@H]4C(C)(C)[C@@H](O)CC[C@@]45C[C@@]35CC[C@]12C)C(C)C [(23E)-CYCLOSADOL]
Result: 9.9

Problem: // next record C=C(C)[C@@H](C)CC[C@@H](C)[C@H]1CC[C@@]2(C)[C@@H]3CC[C@H]4[C@H](C)[C@H](O)CC[C@@]45C[C@@]35CC[C@]12C
Result: 9.3

* * *

test: Scavenging activity against NO generation in human Chang liver cells assessed as inhibition of NOR1-activation at 350 nM relative to NOR1; assay type: functional
For each record, write down the corresponding Activity.
Just the number.

Problem: Find the recorded Activity belonging to C=C(CC[C@@H](C)[C@H]1CC[C@@]2(C)[C@@H]3CC[C@H]4[C@H](C)[C@H](O)CC[C@@]45C[C@@]35CC[C@]12C)C(C)C and report it.
Result: 1.6

Problem: // next record CC(C)CCC[C@@H](C)[C@H]1CC[C@@]2(C)[C@@H]3CC[C@H]4C[C@@H](O)CC[C@@]45C[C@@]35CC[C@]12C
Result: 1.5

Problem: // next record CC(C)=C(C)CC[C@@H](C)[C@H]1CC[C@@]2(C)[C@@H]3CC[C@H]4C(C)(C)[C@@H](O)CC[C@@]45C[C@@]35CC[C@]12C
Result: 1.9

Problem: // next record CC(C)C(O)(CO)CC[C@@H](C)[C@H]1CC[C@@]2(C)[C@@H]3CC[C@H]4C(C)(C)[C@@H](O)CC[C@@]45C[C@@]35CC[C@]12C (some centres not stated)
Result: 2.2

Problem: // next record C[C@H](C/C=C/C(C)(C)O)[C@H]1CC[C@@]2(C)[C@@H]3CC[C@H]4C(C)(C)C(=O)CC[C@@]45C[C@@]35CC[C@]12C
Result: 1.9

Problem: // next record CC1(C)N([O])C(c2ccc(C(=O)O)cc2)=[N+]([O-])C1(C)C
Result: 8

Problem: // next record C=C(C)[C@@H](C)CC[C@@H](C)[C@H]1CC[C@@]2(C)[C@@H]3CC[C@H]4[C@@H](C)C(=O)CC[C@@]45C[C@@]35CC[C@]12C
Result: 1.8

Problem: // next record CC(=O)O[C@@H]1CC[C@]23C[C@]24CC[C@]2(C)[C@@H]([C@H](C)CCC=C(C)C)CC[C@@]2(C)[C@@H]4CC[C@H]3C1(C)C
Result: 1.6

Problem: // next record COc1cc(/C=C/C(=O)O[C@H]2CC[C@]34C[C@]35CC[C@]3(C)[C@@H]([C@H](C)CCC=C(C)C)CC[C@@]3(C)[C@@H]5CC[C@H]4C2(C)C)ccc1O
Result: 1.5

Problem: // next record COCC(O)(CC[C@@H](C)[C@H]1CC[C@@]2(C)[C@@H]3CC[C@H]4C(C)(C)[C@@H](O)CC[C@@]45C[C@@]35CC[C@]12C)C(C)C (some centres not stated)
Result: 2.1

Problem: // next record CC(C)C(=O)CC[C@@H](C)[C@H]1CC[C@@]2(C)[C@@H]3CC[C@H]4C(C)(C)C(=O)CC[C@@]45C[C@@]35CC[C@]12C
Result: 1.9

Problem: // next record C=C(CC[C@@H](C)[C@H]1CC[C@@]2(C)[C@@H]3CC[C@H]4[C@H](C)C(=O)CC[C@@]45C[C@@]35CC[C@]12C)C(C)C
Result: 1.5

Problem: // next record C=C(CC[C@@H](C)[C@H]1CC[C@@]2(C)[C@@H]3CC[C@H]4[C@H](C)[C@@H](O)CC[C@@]45C[C@@]35CC[C@]12C)C(C)C
Result: 1.7

Problem: // next record CC(=O)[C@H]1CC[C@@]2(C)[C@@H]3CC[C@H]4C(C)(C)C(=O)CC[C@@]45C[C@@]35CC[C@]12C
Result: 1.5

Problem: // next record C=C(CC[C@@H](C)[C@H]1CC[C@@]2(C)[C@@H]3CC[C@H]4C(C)(C)[C@@H](O)CC[C@@]45C[C@@]35CC[C@]12C)C(C)C
Result: 1.7

Problem: // next record CC(C)CCC[C@@H](C)C1=CC[C@@]2(C)[C@@H]3CC[C@H]4C(C)(C)[C@@H](O)CC[C@@]45C[C@@]35CC[C@]12C
Result: 1.6

Problem: // next record CC1(C)[C@@H](O[C@H]2O[C@H](C(=O)O)[C@@H](O)[C@H](O)[C@H]2O[C@@H]2O[C@H](C(=O)O)[C@@H](O)[C@H](O)[C@H]2O)CC[C@]2(C)[C@H]3C(=O)C=C4[C@@H]5C[C@@](C)(C(=O)O)CC[C@]5(C)CC[C@@]4(C)[C@]3(C)CC[C@@H]12
Result: 2.2

Problem: // next record C=C(CC[C@@H](C)[C@H]1CC[C@@]2(C)[C@@H]3CC[C@H]4[C@H](C)[C@@H](OC(=O)/C=C/c5ccc(O)c(OC)c5)CC[C@@]45C[C@@]35CC[C@]12C)C(C)C [CYCLOEUCALENOL FERULATE]
Result: 1.5

Problem: // next record CC(C)=CCC[C@@H](C)[C@H]1CC[C@@]2(C)[C@@H]3CC[C@H]4C(C)(C)[C@H](O)CC[C@@]45C[C@@]35CC[C@]12C
Result: 1.8

Problem: // next record C[C@H](CCC(O)C(C)(C)O)[C@H]1CC[C@@]2(C)[C@@H]3CC[C@H]4C(C)(C)C(=O)CC[C@@]45C[C@@]35CC[C@]12C (some centres not stated)
Result: 2

Problem: // next record CC(C)=CCC[C@@H](C)[C@H]1CC[C@@]2(C)[C@@H]3CC[C@H]4C(C)(C)[C@@H](O)CC[C@@]45C[C@@]35CC[C@]12C
Result: 1.6

Problem: // next record COC(CC[C@@H](C)[C@H]1CC[C@@]2(C)[C@@H]3CC[C@H]4C(C)(C)C(=O)CC[C@@]45C[C@@]35CC[C@]12C)C(C)(C)O (some centres not stated)
Result: 1.9

* * *

tested on: Human gammaherpesvirus 4; experiment: Inhibition of TPA-induced Epstein-Barr virus early antigen activation in Raji cells after 48 hrs; type: functional, organism-based; settings: human gammaherpesvirus 4, Raji
reported.endpoint: pIC50
Bear in mind: pIC50 is minus log10 of a mol/L concentration; give just that figure.

Problem: Find the recorded pIC50 belonging to C=C(CC[C@@H](C)[C@H]1CC[C@@]2(C)[C@@H]3CC[C@H]4[C@H](C)[C@@H](O)CC[C@@]45C[C@@]35CC[C@]12C)C(C)C and report it.
Result: 8.05

Problem: // next record CC(C)C(=O)CC[C@@H](C)[C@H]1CC[C@@]2(C)[C@@H]3CC[C@H]4C(C)(C)[C@@H](O)CC[C@@]45C[C@@]35CC[C@]12C
Result: 8.09

Problem: // next record CC(C)CCC[C@@H](C)[C@H]1CC[C@@]2(C)[C@@H]3CC[C@H]4[C@H](C)[C@@H](O)CC[C@@]45C[C@@]35CC[C@]12C
Result: 8.00

Problem: // next record C=C(C)C(=O)CC[C@@H](C)[C@H]1CC[C@@]2(C)[C@@H]3CC[C@H]4C(C)(C)[C@@H](O)CC[C@@]45C[C@@]35CC[C@]12C
Result: 8.03

Problem: // next record CC(C)CCC[C@@H](C)[C@H]1CC[C@@]2(C)[C@@H]3CC[C@H]4C[C@@H](O)CC[C@@]45C[C@@]35CC[C@]12C
Result: 8.00

Problem: // next record CC(C)CCC[C@@H](C)[C@H]1CC[C@@]2(C)[C@@H]3CC[C@H]4C(C)(C)[C@@H](O)CC[C@@]45C[C@@]35CC[C@]12C
Result: 8.03

Problem: // next record CC(C)C(O)(CO)CC[C@@H](C)[C@H]1CC[C@@]2(C)[C@@H]3CC[C@H]4C(C)(C)[C@@H](O)CC[C@@]45C[C@@]35CC[C@]12C (some centres not stated)
Result: 8.21

Problem: // next record C=C(C)C(O)CC[C@@H](C)[C@H]1CC[C@@]2(C)[C@@H]3CC[C@H]4C(C)(C)C(=O)CC[C@@]45C[C@@]35CC[C@]12C (some centres not stated)
Result: 8.07

Problem: // next record C=C(CC[C@@H](C)[C@H]1CC[C@@]2(C)[C@@H]3CC[C@H]4[C@H](C)[C@H](O)CC[C@@]45C[C@@]35CC[C@]12C)C(C)C
Result: 8.03

Problem: // next record CC(C)CCC[C@@H](C)C1=CC[C@@]2(C)[C@@H]3CC[C@H]4C(C)(C)[C@@H](O)CC[C@@]45C[C@@]35CC[C@]12C
Result: 8.00

Problem: // next record COc1cc(/C=C/C(=O)CC(=O)/C=C/c2ccc(O)c(OC)c2)ccc1O
Result: 7.99

Problem: // next record C=C(CC[C@@H](C)[C@H]1CC[C@@]2(C)[C@@H]3CC[C@H]4C(C)(C)[C@@H](OC(=O)/C=C/c5ccc(O)c(OC)c5)CC[C@@]45C[C@@]35CC[C@]12C)C(C)C
Result: 7.80

Problem: // next record COC(C)(C)[C@@H](O)CC[C@@H](C)[C@H]1CC[C@@]2(C)[C@@H]3CC[C@H]4C(C)(C)[C@@H](O)CC[C@@]45C[C@@]35CC[C@]12C
Result: 8.02

Problem: // next record CC(C)C(C)CC[C@@H](C)[C@H]1CC[C@@]2(C)[C@@H]3CC[C@H]4[C@H](C)[C@@H](O)CC[C@@]45C[C@@]35CC[C@]12C (some centres not stated)
Result: 8.00

Problem: // next record CC1=C(/C=C/C(C)=C/C=C/C(C)=C/C=C/C=C(C)/C=C/C=C(C)/C=C/C2=C(C)CCCC2(C)C)C(C)(C)CCC1
Result: 7.90

Problem: // next record COCC(O)(CC[C@@H](C)[C@H]1CC[C@@]2(C)[C@@H]3CC[C@H]4C(C)(C)[C@@H](O)CC[C@@]45C[C@@]35CC[C@]12C)C(C)C (some centres not stated)
Result: 8.17

Problem: // next record C=C(CC[C@@H](C)[C@H]1CC[C@@]2(C)[C@@H]3CC[C@H]4C[C@@H](OC(C)=O)CC[C@@]45C[C@@]35CC[C@]12C)C(C)C
Result: 8.00

Problem: // next record CC(C)=C(C)CC[C@@H](C)[C@H]1CC[C@@]2(C)[C@@H]3CC[C@H]4C(C)(C)[C@@H](O)CC[C@@]45C[C@@]35CC[C@]12C
Result: 8.03

Problem: // next record C=C(C)[C@@H](C)CC[C@@H](C)[C@H]1CC[C@@]2(C)[C@@H]3CC[C@H]4C(C)(C)[C@@H](O)CC[C@@]45C[C@@]35CC[C@]12C [CYCLOLAUDENOL (24S)]
Result: 8.05

Problem: // next record C=C(CC[C@@H](C)[C@H]1CC[C@@]2(C)[C@@H]3CC[C@H]4[C@H](C)[C@@H](OC(=O)/C=C/c5ccc(O)c(OC)c5)CC[C@@]45C[C@@]35CC[C@]12C)C(C)C [CYCLOEUCALENOL FERULATE]
Result: 7.81

Problem: // next record CC(C)=CCC[C@@H](C)[C@H]1CC[C@@]2(C)[C@@H]3CC[C@H]4C(C)(C)C(=O)CC[C@@]45C[C@@]35CC[C@]12C
Result: 8.06

Problem: // next record CC(=O)O[C@H]1CC[C@]23C[C@]24CC[C@]2(C)[C@@H]([C@H](C)CCC=C(C)C)CC[C@@]2(C)[C@@H]4CC[C@H]3C1(C)C [CYCLOARTENOL ACETATE]
Result: 8.00
